Task for the reader: assign each of the following molecules its reported INHIBITION.
tested on: Plasmodium berghei; experiment: Screen against P. berghei liver stage (PbLuc), transformed with Luciferase, at 10uM; type: functional, HepG2; settings: tested at 10 uM
Out of some 69,000 compounds screened, about 8,600 (12%) showed an effect of 50% or more. This excerpt belongs to a sample that is enriched for strong results.
Record the value in %, omitting the unit from your answer.

**Query** Entry under review: COCC1CN(C(=O)COc2ccccc2)Cc2cn(C)nc21 (stereo unspecified) . Reported INHIBITION?
**Result** 11.5

**Query** Fill in: INHIBITION of `CN(C)CCN1CCOCC2(CCN(Cc3ccc[nH]3)CC2)C1` is ___
**Result** -7.94

**Query** Which INHIBITION is listed for CC(CCNC(=O)NCCc1ccc(S(N)(=O)=O)cc1)c1ccccc1 (stereo unspecified) ?
**Result** 54.8

**Query** INHIBITION for `CCN(CC(=O)N(C)C)S(=O)(=O)c1cnc2c(c1)c(C)nn2C` ?
**Result** 51.1

**Query** // INHIBITION lookup, key: CCc1nccn1CC1CCCN1S(=O)(=O)N1CCCOCC1 (stereo unspecified)
**Result** -9.39

**Query** Fill blank: measured INHIBITION of the molecule c1cc(CNCC2OCCc3cn(CC4CC4)nc32)cs1 (stereo unspecified) is ____.
**Result** 20.9

**Query** Query (molecule): O=C(CC1CCc2ccccc21)N1CCC(O)(c2cccnc2)CC1 (stereo unspecified) ; field requested: INHIBITION
**Result** 6.83

**Query** // returns reported INHIBITION for input O=C(c1ccccn1)N1CCOC2(COCCN(Cc3cc[nH]n3)C2)C1 (stereo unspecified)
**Result** -95.7

**Query** I am curious: what INHIBITION value has been reported for COc1cccc(C(C)Nc2ncnc3c2NC(=O)CN3)c1 (stereo unspecified) ?
**Result** 45.8

**Query** For CC1(C)CN(CC(O)C(C)(C)C)C(=O)CN(C(=O)c2ccccc2)C1 (stereo unspecified) , what is its reported INHIBITION?
**Result** 4.07

**Query** Request the reported INHIBITION associated with `CC(C)=CCN1C[C@@H]2CC[C@H]1CN(C(=O)c1ccc3nc[nH]c3c1)C2`
**Result** 10.3

====

Exercise: state measured INHIBITION for each of the molecules provided.
system: Plasmodium berghei; assay: Screen against P. berghei liver stage (PbLuc), transformed with Luciferase, at 10uM; assay type: functional, HepG2; conditions: tested at 10 uM
Hit rate of the full screen: of about 69,000 compounds, about 8,600 (12%) showed an effect of 50% or more. Many of the other results were omitted from the sample, so strong results are more common in it than they were.
// note: answer is a bare numeric in %

**Query** Requested read-out: INHIBITION. Entry: `O=C(c1cccnc1)N1CCn2cc(CN3CCCC3)nc2C1`
**Result** 31.1

**Query** Fill in: INHIBITION of `CN1CCN(Cc2cn3c(n2)CN(C(=O)c2ccco2)CC3)CC1` is ___
**Result** 17.4

**Query** Report INHIBITION for CCc1ncc(C(=O)N2CCCOC(Cn3cccn3)C2)cn1 (stereo unspecified) please.
**Result** 40.2

**Query** Record request: INHIBITION value, item `CC(=O)NCC(=O)N1CCn2cc(CN3CCN(C)CC3)nc2C1`
**Result** 43.5

**Query** Reported INHIBITION, molecule `COc1nc2c(cc1C(=O)N1CC[C@H](CO)[C@@H](O)C1)CCC2` : ____
**Result** 61

**Query** // query INHIBITION value for entry COc1nc2c(cc1C(=O)N1CCCOC(CN3CCCC3)C1)CCC2 (stereo unspecified)
**Result** 54.5
